Every entry's value here was drawn from BindingDB's records for doi:10.1016/j.bmc.2010.08.049.

Ki by entry:
molecular target: GABA A receptor alpha-4/beta-3/gamma-2 (Homo sapiens, UniProt P48169+P18507+P28472); test: Displacement of [3H]flunitrazepam from human recombinant GABAA alpha-4-beta-3-gamma-2 receptor expressed in HEK cells by liquid scintillation counting
Sequence (P48169 whole entry, one chain of several): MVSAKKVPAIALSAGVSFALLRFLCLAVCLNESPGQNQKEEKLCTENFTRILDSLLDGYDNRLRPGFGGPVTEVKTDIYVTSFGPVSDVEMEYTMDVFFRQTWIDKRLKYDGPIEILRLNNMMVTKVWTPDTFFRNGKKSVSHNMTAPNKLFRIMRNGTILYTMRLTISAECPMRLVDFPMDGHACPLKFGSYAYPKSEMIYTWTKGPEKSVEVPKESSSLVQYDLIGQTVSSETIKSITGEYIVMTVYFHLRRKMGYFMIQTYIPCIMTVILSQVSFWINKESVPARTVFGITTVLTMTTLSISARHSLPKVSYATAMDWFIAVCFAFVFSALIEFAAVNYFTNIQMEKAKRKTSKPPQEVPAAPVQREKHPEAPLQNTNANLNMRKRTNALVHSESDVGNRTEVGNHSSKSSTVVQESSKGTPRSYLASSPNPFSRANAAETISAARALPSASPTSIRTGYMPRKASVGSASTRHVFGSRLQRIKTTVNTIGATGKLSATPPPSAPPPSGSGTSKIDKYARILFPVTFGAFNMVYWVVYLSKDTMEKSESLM
Only the number, expressed in µM, is required.

Below, each entry is followed by its recorded Ki result.
Bench note, GABA A receptor alpha-4/beta-3/gamma-2 (Homo sapiens, UniProt P48169+P18507+P28472): CC(OC(=O)c1cc2c(cn1)[nH]c1ccccc12)C(Cl)(Cl)Cl (stereo not drawn) , Ki reads 3

Bench note, GABA A receptor alpha-4/beta-3/gamma-2 (Homo sapiens, UniProt P48169+P18507+P28472): "O=C(OCC(F)(F)F)c1cc2c(cn1)[nH]c1ccc(I)cc12" , Ki reads 2

Next:
Bench note, GABA A receptor alpha-4/beta-3/gamma-2 (Homo sapiens, UniProt P48169+P18507+P28472): "CCOC(=O)c1cc2c(cn1)[nH]c1ccc(C#C[Si](C)(C)C)cc12" , Ki reads 2

Bench note, GABA A receptor alpha-4/beta-3/gamma-2 (Homo sapiens, UniProt P48169+P18507+P28472): "CC(C)(C)OC(=O)c1cc2c(cn1)[nH]c1ccc(F)cc12" , Ki reads 1

Bench note, GABA A receptor alpha-4/beta-3/gamma-2 (Homo sapiens, UniProt P48169+P18507+P28472): "O=C(OCC(F)(F)F)c1cc2c(cn1)[nH]c1ccc(-c3ccco3)cc12" , Ki reads 3

Bench note, GABA A receptor alpha-4/beta-3/gamma-2 (Homo sapiens, UniProt P48169+P18507+P28472): "O=C(OCC(Cl)(Cl)Cl)c1cc2c(cn1)[nH]c1ccccc12" , Ki reads 1

Bench note, GABA A receptor alpha-4/beta-3/gamma-2 (Homo sapiens, UniProt P48169+P18507+P28472): "O=C(Oc1cc(F)c(F)cc1F)c1cc2c(cn1)[nH]c1ccccc12" , Ki reads 3

Bench note, GABA A receptor alpha-4/beta-3/gamma-2 (Homo sapiens, UniProt P48169+P18507+P28472): "CCOC(=O)c1cc2c(cn1)[nH]c1ccc(I)cc12" , Ki reads 1

====

target: Gamma-aminobutyric acid receptor subunit alpha-6/beta-3/gamma-2 (Homo sapiens, UniProt Q16445+P18507+P28472); assay: Displacement of [3H]flunitrazepam from human recombinant GABAA alpha-6-beta-3-gamma-2 receptor expressed in HEK cells by liquid scintillation counting
Sequence (Q16445 whole entry, one chain of several): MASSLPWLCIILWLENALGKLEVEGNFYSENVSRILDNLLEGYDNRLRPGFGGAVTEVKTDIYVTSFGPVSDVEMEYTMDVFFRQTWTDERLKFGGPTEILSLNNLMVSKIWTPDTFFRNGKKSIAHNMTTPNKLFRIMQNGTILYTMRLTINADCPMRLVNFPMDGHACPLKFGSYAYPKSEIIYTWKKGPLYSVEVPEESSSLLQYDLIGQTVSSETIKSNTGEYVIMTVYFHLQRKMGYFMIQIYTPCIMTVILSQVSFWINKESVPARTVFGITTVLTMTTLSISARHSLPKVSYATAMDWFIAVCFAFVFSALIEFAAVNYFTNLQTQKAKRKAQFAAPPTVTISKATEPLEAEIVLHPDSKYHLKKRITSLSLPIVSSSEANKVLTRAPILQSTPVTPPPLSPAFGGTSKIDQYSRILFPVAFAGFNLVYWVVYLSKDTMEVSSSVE
Observation Type: pKi
pKi is defined as minus the log10 of a concentration measured in mol/L.

The molecule listed as "CC(C)(C)OC(=O)c1cc2c(cn1)[nH]c1ccc(F)cc12" has a reported pKi of 6.00

The molecule listed as "CC(C)(C)OC(=O)c1cc2c(cn1)[nH]c1ccc(C#CC#Cc3ccc4[nH]c5cnc(C(=O)OC(C)(C)C)cc5c4c3)cc12" has a reported pKi of 5.30

The molecule listed as CCOc1cc2c(cn1)[nH]c1ccccc12 [3-ethoxy-9H-pyrido[3,4-b]indole] has a reported pKi of 6.00

The molecule listed as "c1ccc(COc2cc3c4ccccc4nc-3c[nH]2)cc1" has a reported pKi of 5.00

The molecule listed as "CC(C)(C)OC(=O)c1cc2c(cn1)[nH]c1ccc(-c3cccs3)cc12" has a reported pKi of 5.30

Next:
The molecule listed as "CCOC(=O)c1cc2c(cn1)[nH]c1ccc(C#C[Si](C)(C)C)cc12" has a reported pKi of 5.70

The molecule listed as "CCOC(=O)c1cc2c(cn1)[nH]c1ccc(I)cc12" has a reported pKi of 6.00

The molecule listed as "CC/C=C/C=C/Oc1cc2c(cn1)[nH]c1ccccc12" has a reported pKi of 5.00

The molecule listed as "O=C(OCC(F)(F)F)c1cc2c(cn1)[nH]c1ccc(-c3ccccc3)cc12" has a reported pKi of 5.70

The molecule listed as "O=C(OC(C(F)(F)F)C(F)(F)F)c1cc2c(cn1)[nH]c1ccccc12" has a reported pKi of 5.70

The molecule listed as CC(OC(=O)c1cc2c(cn1)[nH]c1ccccc12)C(Cl)(Cl)Cl (stereo not given) has a reported pKi of 5.30

The molecule listed as "C#Cc1ccc2c(c1)c1cc(C(=O)OC(C)(C)C)ncc1n2C(=O)OC(C)(C)C" has a reported pKi of 5.30

The molecule listed as "O=C(OC(C(F)(F)F)C(F)(F)F)c1cc2c(cn1)[nH]c1ccc(I)cc12" has a reported pKi of 5.52

The molecule listed as "CC(C)(C)OC(=O)c1cc2c(cn1)[nH]c1ccc(C(C)(C)C)cc12" has a reported pKi of 6.00

The molecule listed as "CC(C)(C)OC(=O)c1cc2c(cn1)[nH]c1ccc(C#C[Si](C)(C)C)cc12" has a reported pKi of 6.00

The molecule listed as CC(OC(=O)c1cc2c(cn1)[nH]c1ccccc12)c1ccccc1 (stereo not given) has a reported pKi of 5.52

The molecule listed as "O=C(Oc1cc(F)c(F)cc1F)c1cc2c(cn1)[nH]c1ccccc12" has a reported pKi of 5.52

====

Ki by entry:
Biological target: GABA-A receptor; alpha-5/beta-3/gamma-2 (Homo sapiens, UniProt P31644+P18507+P28472)
Sequence (P31644 whole entry): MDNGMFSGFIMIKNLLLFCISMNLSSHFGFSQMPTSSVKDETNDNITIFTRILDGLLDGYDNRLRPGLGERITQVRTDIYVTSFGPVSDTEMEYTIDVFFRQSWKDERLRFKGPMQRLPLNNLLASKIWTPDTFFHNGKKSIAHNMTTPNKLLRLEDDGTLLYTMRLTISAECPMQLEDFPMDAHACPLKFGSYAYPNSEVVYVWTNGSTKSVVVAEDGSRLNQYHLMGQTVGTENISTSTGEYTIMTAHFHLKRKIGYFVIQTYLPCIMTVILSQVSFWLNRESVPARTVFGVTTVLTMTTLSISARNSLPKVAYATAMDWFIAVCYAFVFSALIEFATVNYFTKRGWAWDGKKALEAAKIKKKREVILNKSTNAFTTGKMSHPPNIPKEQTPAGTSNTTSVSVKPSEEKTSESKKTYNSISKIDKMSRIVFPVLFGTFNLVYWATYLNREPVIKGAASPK
Sequence (P18507 whole entry): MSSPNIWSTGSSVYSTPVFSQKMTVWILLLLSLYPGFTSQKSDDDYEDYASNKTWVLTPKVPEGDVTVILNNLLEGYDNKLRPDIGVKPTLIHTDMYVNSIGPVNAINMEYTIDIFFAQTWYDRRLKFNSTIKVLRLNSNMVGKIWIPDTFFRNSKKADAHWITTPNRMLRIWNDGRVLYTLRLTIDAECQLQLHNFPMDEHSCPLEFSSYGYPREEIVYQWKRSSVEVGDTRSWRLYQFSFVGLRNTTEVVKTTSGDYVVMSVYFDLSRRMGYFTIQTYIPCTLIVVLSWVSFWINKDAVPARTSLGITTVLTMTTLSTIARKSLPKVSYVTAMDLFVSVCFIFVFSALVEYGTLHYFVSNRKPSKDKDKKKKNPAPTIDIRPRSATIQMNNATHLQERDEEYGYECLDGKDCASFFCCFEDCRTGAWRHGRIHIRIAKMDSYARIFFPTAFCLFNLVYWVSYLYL
Sequence (P28472 whole entry): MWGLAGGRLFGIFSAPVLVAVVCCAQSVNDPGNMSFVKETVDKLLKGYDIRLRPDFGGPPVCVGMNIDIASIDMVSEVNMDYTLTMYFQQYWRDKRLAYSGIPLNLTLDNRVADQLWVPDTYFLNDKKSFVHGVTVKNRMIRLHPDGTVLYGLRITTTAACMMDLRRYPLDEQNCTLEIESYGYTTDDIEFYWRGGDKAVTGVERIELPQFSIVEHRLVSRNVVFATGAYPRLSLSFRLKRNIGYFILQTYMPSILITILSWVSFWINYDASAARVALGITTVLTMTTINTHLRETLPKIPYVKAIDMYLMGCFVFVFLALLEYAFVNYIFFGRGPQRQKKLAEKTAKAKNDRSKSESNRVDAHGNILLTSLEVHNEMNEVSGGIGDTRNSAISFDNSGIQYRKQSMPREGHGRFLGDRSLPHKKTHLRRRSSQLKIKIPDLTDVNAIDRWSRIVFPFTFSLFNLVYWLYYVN
Assay: Displacement of [3H]flunitrazepam from human recombinant GABAA alpha-5-beta-3-gamma-2 receptor expressed in HEK cells by liquid scintillation counting
Only the number, expressed in µM, is required.

The compound listed as "CC/C=C/C=C/Oc1cc2c(cn1)[nH]c1ccccc12" has a reported Ki of 10

The compound listed as "c1ccc(COc2cc3c4ccccc4nc-3c[nH]2)cc1" has a reported Ki of 10

The compound listed as CC(OC(=O)c1cc2c(cn1)[nH]c1ccccc12)C(Cl)(Cl)Cl (configuration not stated) has a reported Ki of 2

The compound listed as CC(OC(=O)c1cc2c(cn1)[nH]c1ccccc12)c1ccccc1 (configuration not stated) has a reported Ki of 1

The compound listed as "CC(C)(C)OC(=O)c1cc2c(cn1)[nH]c1ccc(C#CC#Cc3ccc4[nH]c5cnc(C(=O)OC(C)(C)C)cc5c4c3)cc12" has a reported Ki of 5

Next:
The compound listed as "C#Cc1ccc2c(c1)c1cc(C(=O)OC(C)(C)C)ncc1n2C(=O)OC(C)(C)C" has a reported Ki of 5

The compound listed as CCC(OC(=O)c1cc2c(cn1)[nH]c1ccccc12)C(F)(F)F (configuration not stated) has a reported Ki of 1
